The reported numbers originate from the NIST ThermoML archive (doi:10.1021/acs.jced.8b01233).

Conditions: 323.15 K; 102 kPa; Liquid; Frequency=3 MHz; Single path-length method
Recorded Endpoint: speed of sound (m/s)

# Compound, speed of sound / m/s
records = [
    ("CCCCCCCCCCCC [dodecane]", 1184.5),
    ("CCCCc1ccccc1 [butylbenzene]", 1238.4),
    ("CC(CC(C)(C)C)CC(C)(C)CC(C)(C)C (centres undefined) [2,2,4,4,6,8,8-heptamethylnonane]", 1176.1),
    ("CCCCC1CCCCC1 [butylcyclohexane]", 1210.1),
]

* * *

Conditions: 298.15 K; 102 kPa; Liquid; Frequency=3 MHz; Single path-length method
Recorded Endpoint: speed of sound (m/s)

# Compound, Recorded Endpoint, Observed Measurement
rows = [
    ("CCCCc1ccccc1", "speed of sound", 1334.1),
    ("CC(CC(C)(C)C)CC(C)(C)CC(C)(C)C (centres undefined)", "speed of sound", 1267.1),
    ("CCCCC1CCCCC1", "speed of sound", 1308.1),
    ("CCCCCCCCCCCC", "speed of sound", 1278.7),
]

* * *

Conditions: 293.15 K; 102 kPa; Liquid; Frequency=3 MHz; Single path-length method
Recorded Endpoint: speed of sound (m/s)

# Compound, Endpoint Unit, speed of sound
data = [
    ("CCCCCCCCCCCC [dodecane]", "m/s", 1297.9),
    ("CCCCC1CCCCC1 [butylcyclohexane]", "m/s", 1328.3),
    ("CC(CC(C)(C)C)CC(C)(C)CC(C)(C)C (centres undefined) [2,2,4,4,6,8,8-heptamethylnonane]", "m/s", 1286),
    ("CCCCc1ccccc1 [butylbenzene]", "m/s", 1353.8),
]

* * *

Settings: 313.15 K; 102 kPa; Liquid; Frequency=3 MHz; Single path-length method
Recorded Endpoint: speed of sound (m/s)

# Compound, speed of sound, m/s
measured = [
    ("CC(CC(C)(C)C)CC(C)(C)CC(C)(C)C (centres undefined)", 1211.8),
    ("CCCCc1ccccc1", 1276.1),
    ("CCCCC1CCCCC1", 1248.6),
    ("CCCCCCCCCCCC", 1221.7),
]

* * *

Conditions: 313.15 K; 102 kPa; Liquid; Concentric cylinders viscometry
Recorded Endpoint: viscosity (mPa·s)

# Molecule, Observed Measurement
rows = [
    ("CCCCCCCCCCCC", 1.06),
    ("CCCCc1ccccc1", 0.773),
]

A = CCCCC1CCCCC1
B = CC(CC(C)(C)C)CC(C)(C)CC(C)(C)C (centres undefined)
Request: Param metric = viscosity; output whichever of A , B has the minimum value. Answer by stating the label of the chosen item.
Response: A

* * *

Conditions: 303.15 K; 102 kPa; Liquid; Concentric cylinders viscometry
Recorded Endpoint: viscosity (mPa·s)

# Compound, Recorded Endpoint, Endpoint Unit, Observed Measurement
data = [
    ("CCCCCCCCCCCC", "viscosity", "mPa·s", 1.25),
    ("CCCCc1ccccc1", "viscosity", "mPa·s", 0.891),
]

I = CC(CC(C)(C)C)CC(C)(C)CC(C)(C)C (centres undefined)
II = CCCCC1CCCCC1
Request: Which record would sort first by descending viscosity, I or II ? Record your answer as the label of the chosen record.
Response: I

* * *

Details: 323.15 K; 102 kPa; Liquid; Concentric cylinders viscometry
Recorded Endpoint: viscosity (mPa·s)

Below: 2 compounds and their reported viscosity.
# Compound, Endpoint Unit, viscosity
measured = [
    ("CCCCCCCCCCCC", "mPa·s", 0.916),
    ("CCCCc1ccccc1", "mPa·s", 0.679),
]

I = CC(CC(C)(C)C)CC(C)(C)CC(C)(C)C (centres undefined)
II = CCCCC1CCCCC1
Request: In the pair I and II , the larger recorded viscosity belongs to which? Give the label of your selection.
Response: I

* * *

Conditions: 288.15 K; 102 kPa; Liquid; Frequency=3 MHz; Single path-length method
Recorded Endpoint: speed of sound (m/s)

# Compound, speed of sound, m/s
rows = [
    ("CCCCCCCCCCCC", 1317.4),
    ("CC(CC(C)(C)C)CC(C)(C)CC(C)(C)C (centres undefined)", 1305.1),
    ("CCCCc1ccccc1", 1373.7),
    ("CCCCC1CCCCC1", 1348.8),
]

* * *

Conditions: 333.15 K; 102 kPa; Liquid; Concentric cylinders viscometry
Recorded Endpoint: viscosity (mPa·s)

# Compound, Endpoint Unit, viscosity
rows = [
    ("CCCCCCCCCCCC", "mPa·s", 0.798),
    ("CCCCc1ccccc1", "mPa·s", 0.601),
]

I = CC(CC(C)(C)C)CC(C)(C)CC(C)(C)C (centres undefined)
II = CCCCC1CCCCC1
Request: Which numeric viscosity is bigger, that of I or that of II ? Refer to your chosen entry by its label in the reply.
Response: I
(I: 1.66 mPa·s, II: 0.729 mPa·s)

* * *

Settings: 333.15 K; 102 kPa; Liquid; Frequency=3 MHz; Single path-length method
Recorded Endpoint: speed of sound (m/s)

# Compound, speed of sound, m/s
measured = [
    ("CC(CC(C)(C)C)CC(C)(C)CC(C)(C)C (centres undefined)", 1141.3),
    ("CCCCc1ccccc1", 1201.7),
    ("CCCCCCCCCCCC", 1148.2),
    ("CCCCC1CCCCC1", 1172.6),
]

* * *

Conditions: 293.15 K; 102 kPa; Liquid; Concentric cylinders viscometry
Recorded Endpoint: viscosity (mPa·s)

Guide cases for viscosity, answers given:
# Compound, Observed Measurement
data = [
    ("CCCCC1CCCCC1 [butylcyclohexane]", 1.32),
    ("CCCCc1ccccc1 [butylbenzene]", 1.04),
]

a = CC(CC(C)(C)C)CC(C)(C)CC(C)(C)C (centres undefined) [2,2,4,4,6,8,8-heptamethylnonane]
b = CCCCCCCCCCCC [dodecane]
Request: Lower value for measured viscosity? Options: a , b Your choice should be expressed through its label.
Response: b

* * *

Conditions: 303.15 K; 102 kPa; Liquid; Frequency=3 MHz; Single path-length method
Recorded Endpoint: speed of sound (m/s)

# Compound, speed of sound / m/s
records = [
    ("CCCCc1ccccc1 [butylbenzene]", 1314.5),
    ("CC(CC(C)(C)C)CC(C)(C)CC(C)(C)C (centres undefined) [2,2,4,4,6,8,8-heptamethylnonane]", 1248.1),
    ("CCCCCCCCCCCC [dodecane]", 1259.5),
    ("CCCCC1CCCCC1 [butylcyclohexane]", 1288),
]
